target: human Gal-1 (hGal-1); experiment: Competitive binding assay: binding of biotinylated hGal-1 to microplate-adsorbed asialofetuin (ASF); conditions: Activities on hGal-1; mean values of several measurements
Sequence (P09382 2-135 limits assumed): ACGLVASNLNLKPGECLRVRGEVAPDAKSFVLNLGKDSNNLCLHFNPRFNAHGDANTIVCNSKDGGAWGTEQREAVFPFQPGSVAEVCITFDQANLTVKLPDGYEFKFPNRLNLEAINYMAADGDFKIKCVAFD
pIC50: −log10 of the molar value.
property-label: pIC50

Known pIC50 results, listed for orientation:
# compound, pIC50
measured = [
    ("CO[C@@H]1[C@@H](n2cc(-c3cc(F)c(F)c(F)c3)nn2)[C@@H](O)[C@@H](CO)O[C@@H]1Cc1cc(C2CCN(C(=O)N3CCCCC3)CC2)on1 [Example 3.66]", 5.44),
    ("CO[C@@H]1[C@@H](n2cc(-c3cc(F)c(F)c(F)c3)nn2)[C@@H](O)[C@@H](CO)O[C@@H]1Cc1cc(C2CCN(S(=O)(=O)C(C)C)CC2)on1 [Example 3.47]", 6.12),
    ("CCOC(=O)N1CCC(c2cc(C[C@H]3O[C@H](CO)[C@H](O)[C@H](n4cc(-c5cc(F)c(F)c(F)c5)nn4)[C@H]3O)no2)CC1 [Example 3.26]", 6.03),
]

[a] CO[C@@H]1[C@@H](n2cc(-c3cc(F)c(F)c(F)c3)nn2)[C@@H](O)[C@@H](CO)O[C@@H]1Cc1cc(C2CCN(C(=O)[C@@H](N)C(C)C)CC2)on1 [Example 3.54]
[b] CO[C@@H]1[C@@H](n2cc(-c3cc(F)c(F)c(F)c3)nn2)[C@@H](O)[C@@H](CO)O[C@@H]1Cc1cc(C2(C)COC2)no1 [Ex 1.211]
Enquiry: Given the two records a and b , choose the one whose pIC50 value is lower. API: response body contains the label of the selected item.
Return: a
(a: 5.82, b: 6.35)
